B1: library; numbered along this chain (parent)
chain: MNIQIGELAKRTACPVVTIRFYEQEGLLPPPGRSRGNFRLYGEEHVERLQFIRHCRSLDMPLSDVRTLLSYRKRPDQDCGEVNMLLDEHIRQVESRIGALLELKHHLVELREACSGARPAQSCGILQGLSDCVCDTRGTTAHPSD

Variants of: B1
Protocol notes: sfGFP reporter fluorescence (15 h) (µM FITC); higher = stronger transcriptional activation
Cond: library round: Round 0; ligand: 30 µM Zn
Reported metric: sfGFP reporter fluorescence
Reply with the value as a number alone.

Per the records, this variant ( I5A ) has sfGFP reporter fluorescence equal to 0.0817

Per the records, this variant ( G36Q ) has sfGFP reporter fluorescence equal to 0.356

Per the records, this variant ( L28D ) has sfGFP reporter fluorescence equal to 0.0636

Per the records, this variant ( P143F ) has sfGFP reporter fluorescence equal to 0.777

Per the records, this variant ( D135F ) has sfGFP reporter fluorescence equal to 1.49

Per the records, this variant ( L129R ) has sfGFP reporter fluorescence equal to 0.0557

Per the records, this variant ( L85P ) has sfGFP reporter fluorescence equal to 0.0555

Per the records, this variant ( I125H ) has sfGFP reporter fluorescence equal to 0.057

Per the records, this variant ( R39H ) has sfGFP reporter fluorescence equal to 0.0663

Per the records, this variant ( L85V ) has sfGFP reporter fluorescence equal to 0.148

Per the records, this variant ( L129I ) has sfGFP reporter fluorescence equal to 0.163

Per the records, this variant ( L62A ) has sfGFP reporter fluorescence equal to 0.0839

Per the records, this variant ( M60Q ) has sfGFP reporter fluorescence equal to 0.0614

Per the records, this variant ( R33Y ) has sfGFP reporter fluorescence equal to 0.0702

Per the records, this variant ( E109V ) has sfGFP reporter fluorescence equal to 1.69

Per the records, this variant ( E109F ) has sfGFP reporter fluorescence equal to 1.32

Per the records, this variant ( M60L P61N K104V G128I ) has sfGFP reporter fluorescence equal to 1.76

Per the records, this variant ( L103A ) has sfGFP reporter fluorescence equal to 0.918

Per the records, this variant ( V16D ) has sfGFP reporter fluorescence equal to 0.97

Per the records, this variant ( E94Y ) has sfGFP reporter fluorescence equal to 0.153

Per the records, this variant ( R137A ) has sfGFP reporter fluorescence equal to 0.454

Per the records, this variant ( N83Q ) has sfGFP reporter fluorescence equal to 1.55

Per the records, this variant ( P61N D64K K104V ) has sfGFP reporter fluorescence equal to 2.41

Per the records, this variant ( P29A ) has sfGFP reporter fluorescence equal to 0.455

Per the records, this variant ( L28I ) has sfGFP reporter fluorescence equal to 0.908

Per the records, this variant ( L110C ) has sfGFP reporter fluorescence equal to 0.0766

Per the records, this variant ( M60Y ) has sfGFP reporter fluorescence equal to 0.12

Per the records, this variant ( R20S ) has sfGFP reporter fluorescence equal to 0.063

Per the records, this variant ( L28N ) has sfGFP reporter fluorescence equal to 0.0605

Per the records, this variant ( K104R ) has sfGFP reporter fluorescence equal to 0.946

Per the records, this variant ( Q77A ) has sfGFP reporter fluorescence equal to 1.48

Per the records, this variant ( M60N ) has sfGFP reporter fluorescence equal to 0.061

Per the records, this variant ( D131N ) has sfGFP reporter fluorescence equal to 1.13

Per the records, this variant ( N83G ) has sfGFP reporter fluorescence equal to 0.692

Per the records, this variant ( P61H ) has sfGFP reporter fluorescence equal to 0.797

Per the records, this variant ( P15L ) has sfGFP reporter fluorescence equal to 1.06

Per the records, this variant ( G36I ) has sfGFP reporter fluorescence equal to 0.117

Per the records, this variant ( D135Q ) has sfGFP reporter fluorescence equal to 1.28

Per the records, this variant ( L58C ) has sfGFP reporter fluorescence equal to 0.0612

Per the records, this variant ( Y22G ) has sfGFP reporter fluorescence equal to 0.0605

Per the records, this variant ( G80A ) has sfGFP reporter fluorescence equal to 0.526

Per the records, this variant ( P75A ) has sfGFP reporter fluorescence equal to 0.519

Per the records, this variant ( R111D ) has sfGFP reporter fluorescence equal to 0.215

Per the records, this variant ( F21S ) has sfGFP reporter fluorescence equal to 0.063

Per the records, this variant ( E109S ) has sfGFP reporter fluorescence equal to 1.47

Per the records, this variant ( D135L ) has sfGFP reporter fluorescence equal to 1.55

Per the records, this variant ( C79G ) has sfGFP reporter fluorescence equal to 0.0522

Per the records, this variant ( L85A ) has sfGFP reporter fluorescence equal to 0.0718

Per the records, this variant ( I125E ) has sfGFP reporter fluorescence equal to 0.0557

Per the records, this variant ( V93A ) has sfGFP reporter fluorescence equal to 0.128

Per the records, this variant ( L126Q ) has sfGFP reporter fluorescence equal to 0.0553

Per the records, this variant ( M60C ) has sfGFP reporter fluorescence equal to 0.0662

Per the records, this variant ( G116A ) has sfGFP reporter fluorescence equal to 0.18

Per the records, this variant ( E112H ) has sfGFP reporter fluorescence equal to 0.424

Per the records, this variant ( V82L ) has sfGFP reporter fluorescence equal to 0.0724

Per the records, this variant ( C79K ) has sfGFP reporter fluorescence equal to 0.0548

Per the records, this variant ( Y41E ) has sfGFP reporter fluorescence equal to 0.0619

Per the records, this variant ( K104G ) has sfGFP reporter fluorescence equal to 0.22

Per the records, this variant ( M60W ) has sfGFP reporter fluorescence equal to 0.926

Per the records, this variant ( D64F ) has sfGFP reporter fluorescence equal to 3.86

Per the records, this variant ( E43Y ) has sfGFP reporter fluorescence equal to 1.2

Per the records, this variant ( P143D ) has sfGFP reporter fluorescence equal to 0.782

Per the records, this variant ( R56A ) has sfGFP reporter fluorescence equal to 0.131

Per the records, this variant ( E43I ) has sfGFP reporter fluorescence equal to 1.11

Per the records, this variant ( R20K ) has sfGFP reporter fluorescence equal to 0.064
